Origin of values: paper PMC10609173

IC50 values by entry
system: promastigote form of Leishmania donovani (1S(MHOM/SD/62/1S)); assay: Antileishmanial resazurin-based assay on promastigotes; format: cell-based; details: Leishmania donovani; L. donovani promastigotes, 28 °C; read-out: Antileishmanial Activity IC50 ± SD

compound	IC50, µg/mL
CC1(C)CC[C@]2(C(=O)O)CC[C@]3(C)C(=CCC4[C@@]5(C)C[C@@H](O)[C@H](O)C(CO)(CO)C5CC[C@]43C)C2[C@@H]1O (stereo partly drawn)	6.5
COC(=O)[C@H](O)[C@@H]1[C@@]2(C)[C@H]3CC[C@@]4(C)[C@H](c5ccoc5)OC(=O)C[C@@]45O[C@H]4C(=O)[C@@]1(C)C[C@]2(OC(C)=O)[C@@H]4[C@@]35O [Khayanolide E (6), khayanolide E]	81.7
C=C1C2C(OC3CC(=O)OC4(C)COC(=O)CC4C32C)C(OC(=O)C(O)C(C)CC)C2(C)C(c3ccoc3)CC(=O)C12O (stereo not drawn)	23.4
